The measured values listed here are drawn from patent US20230416329A1.

- target: bovine trypsin (bovine, UniProt P00760 24-246)
- Sequence (P00760 24-246): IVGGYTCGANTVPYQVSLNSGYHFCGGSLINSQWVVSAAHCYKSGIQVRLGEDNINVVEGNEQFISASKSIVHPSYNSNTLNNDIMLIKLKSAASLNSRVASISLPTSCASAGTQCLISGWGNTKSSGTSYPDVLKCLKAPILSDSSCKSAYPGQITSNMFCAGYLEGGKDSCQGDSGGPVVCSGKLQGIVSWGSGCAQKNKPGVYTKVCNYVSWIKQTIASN
- test protocol: trypsin inhibition, BApNA substrate
pIC50: −log10 of the molar value. Bridge positions count the residues as written; N and C are the ends. Ends that are not written are not given here.
Assign YES to entries whose pIC50 meets or exceeds 6; assign NO to the rest.

Use these answered entries as a reference point.
>  <binder>
CGRATRSIPPICF (disulfide 1-12 (inferred)) [BT17]

>  <class assignment>
YES

$$$$
>  <binder>
CGRWTKSIPPICF (disulfide 1-12 (inferred)) [BT57]

>  <class assignment>
YES

$$$$
>  <binder>
CGRPTKSIPPICF (disulfide 1-12 (inferred)) [BT59]

>  <class assignment>
NO

$$$$
>  <binder>
CGRFTKSIPPICF (disulfide 1-12 (inferred)) [BT52]

>  <class assignment>
YES

$$$$
>  <binder>
CGRATRSIPPICA (disulfide 1-12 (inferred)) [BT19]

>  <class assignment>
NO

$$$$
>  <binder>
CPRATKSIPPICF (disulfide 1-12 (inferred)) [BT66]

>  <class assignment>
YES

$$$$

Input line: Check the entry CGRATKSIPPIAFGC (disulfide 1-15 (inferred)) [BT32] : does pIC50 equal or exceed 6?
Output line: NO

Input line: Entry CGRSTKSIPPICF (disulfide 1-12 (inferred)) [BT47] : is its pIC50 no less than 6?
Output line: YES

Input line: Test whether the binder CQRATKSIPPICF (disulfide 1-12 (inferred)) [BT79] records pIC50 of 6 or higher.
Output line: YES
